Reported TGI is given for each of the following compounds.
# System: U251 CNS
# Method: NCI tumour cell line growth inhibition, 48 h

Answered examples (9):
[[record]]
compound = "CCOC(=O)C(/C=N\\C(=S)Nc1c(CC)cccc1C(C)(C)C)=C(/O)c1ccccc1"
quantity_kind = "TGI"
meas_value = "> 100 µM"

[[record]]
compound = "O=c1c(-c2ccccc2)c2n(c3ccccc13)CCN2"
quantity_kind = "TGI"
meas_value = "> 100 µM"

[[record]]
compound = "NCCCOc1cc2ccccc2cc1C(=O)NCCOc1nc2ccccc2cc1C(=O)Nc1ccc(Cl)cc1O"
quantity_kind = "TGI"
meas_value = "2.41 µM"

[[record]]
compound = "CCOC(=O)C12CCCC1(O)N(NC(N)=O)C(C)=C2C(=O)OC (stereo not given)"
quantity_kind = "TGI"
meas_value = "> 100 µM"

[[record]]
compound = "CCC(=O)c1cc(C(=O)C(=S)SC)cc(C(=O)C(=S)SC)c1"
quantity_kind = "TGI"
meas_value = "> 100 µM"

[[record]]
compound = "Cc1cc(=O)oc2cc(OCc3nc4ccccc4c(=O)n3-c3ccccc3)ccc12"
quantity_kind = "TGI"
meas_value = "> 100 µM"

[[record]]
compound = "CC1(C)CN(c2cc(C(F)(F)F)cc3cncn23)CCC12NC(=O)NC2=O (stereo not given)"
quantity_kind = "TGI"
meas_value = "> 100 µM"

[[record]]
compound = "CCN(CC)CCNc1ccc2nnn3c4ccc([N+](=O)[O-])cc4c(=O)c1c23"
quantity_kind = "TGI"
meas_value = "13 µM"

[[record]]
compound = "Cn1ncc(NC(=O)c2nc(-c3c(F)cccc3F)sc2N)c1N1CC[C@@H](N)[C@H](F)CC1"
quantity_kind = "TGI"
meas_value = "23.9 µM"


Now for another entry.
Request the reported TGI associated with COC(=O)/C=C/C1C2C3(CCC(C)C12C)OCCS3 (stereo not given)
> 100 µM

###

# System: MDA-MB-435
# Method: NCI tumour cell line growth inhibition, 48 h
Reported TGI is given for each of the following compounds.

Answered examples (5):
[[record]]
compound = "CC#CC#C/C=C1/O[C@]2(CCC(OC(=O)CC(C)C)CO2)[C@@H]2O[C@H]12 (some centres undefined)"
meas_value = "60.4 µM"

[[record]]
compound = "O=CN(CCN1CCCC1)C1CCc2cc(Cl)c(Cl)cc2C1 (centres undefined)"
meas_value = "28.6 µM"

[[record]]
compound = "CCCCCCCCCCS(=O)CC(CO)NC(=O)/C=C/c1c(C)[nH]c(=O)[nH]c1=O (centres undefined)"
meas_value = "49.1 µM"

[[record]]
compound = "CCN(CC)CCNc1ccc2nnn3c4ccc([N+](=O)[O-])cc4c(=O)c1c23"
meas_value = "> 100 µM"

[[record]]
compound = "Nc1nc(N)c(N=Nc2ccccc2)c(-c2ccccc2)n1"
meas_value = "29.5 µM"


Request the reported TGI associated with Nc1nonc1C(=Nc1ccc(F)c(Cl)c1)NO
> 100 µM

Request the reported TGI associated with CC(C)(C)OC(=O)NCCc1ccc(N)cc1
> 100 µM

Request the reported TGI associated with COc1cc2c(cc1I)-c1c(cc(OC)c(OC)c1OC)CC[C@@H]2NC(C)=O
0.55 µM

Request the reported TGI associated with COc1ccc(/C=C/C(=O)c2cc3c(N)c(C(=O)Nc4cccc(Cl)c4C)sc3nc2C)cc1
0.258 µM

Request the reported TGI associated with CCN(CC)Cc1cc(Nc2c3ccc(Cl)cc3nc3ccc(OC)cc23)ccc1O
6 µM

Request the reported TGI associated with OC1c2ccccc2CCC1C(O)(C(F)(F)F)C(F)(F)F (centres undefined)
> 100 µM

Request the reported TGI associated with CC(C)=CCC/C(C)=C/CC/C(C)=C/CC/C(C)=C/CSC[C@H](NC(=O)CCCCCN1CCN(C)CC1)C(=O)NC1CCCCC1
3.07 µM

Request the reported TGI associated with O=C(/C=C/NC(=O)OCc1ccccc1)OCc1ccccc1
> 100 µM

Request the reported TGI associated with Cc1nn(C(=O)c2ccccc2O)c2c1C(c1ccc3ccccc3c1O)SC(N)=N2 (centres undefined)
> 10 µM
